Reference source for all entries: PubChem BioAssay AID1159580

Measured normalized growth, listed per entry.
Test: chemical genetic growth profiling, strain panel (AID 1159580);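 further: tested at 20 µM; growth read once vehicle control cultures reached saturation at 30 °C; 1 = growth at the plate median or of vehicle wells; lower values mean less growth of the strain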
Conditions: S. cerevisiae deletion strains, growth OD, locus YBR160W, strain CDC28, stronger effect = lower value
Screen size: about 5,500 compounds; about 2,000 (36%) were called active. About 18% were inconclusive and are not listed. Some of the results follow.
Enter a number only.

Completed entries (count: 5):
Clc1ccc2c(c1)c1ccccc1n2CN1CCOCC1; 0.945
O=[N+]([O-])c1cnc(Sc2nnc(SCc3cccc(C(F)(F)F)c3)s2)s1; 0.0963
Cc1csc(NC(=O)Nc2ccc(C(F)(F)F)cc2)c1Cl; 0.943
Nc1ccc(Sc2ccccc2)nc1Sc1ccccc1; 0.95
Cc1csc(NC(=O)Nc2ccc(C(F)(F)F)cc2)c1; 0.975

--- query ---
Request: In one line, give reported normalized growth of the entry "Fc1ccc(NC(=S)N2CCCN(Cc3ccc(Cl)cc3Cl)CC2)cc1" .
Response: 0.982
